Taken from ChEMBL document CHEMBL3120103.

- assay-notes: Cytotoxicity against human A549 cells assessed as viable cells at 1 to 30 uM after 3 hrs by CCK8 assay
- Assay type: cell-based
- test-settings: read-out: Activity
measure: viability at 3 h, up to 30 µM

State the recorded viability at 3 h, up to 30 µM for this entry: O=C(O)c1ccc2c(c1)nc(Nc1cccc(Cl)c1)c1ccncc12
> 70%

* * *

- assay-notes: Cytotoxicity against human A549 cells assessed as viable cells at 1 to 30 uM after 24 hrs by CCK8 assay
- Assay type: cell-based
- test-settings: read-out: Activity
measure: viability at 24 h, up to 30 µM

Endpoint output: viability at 24 h, up to 30 µM of O=C(O)c1ccc2c(c1)nc(Nc1cccc(Cl)c1)c1ccncc12 [SILMITASERTIB] . Value?
> 70%
